Endpoint name: melting point (°C)

{"Compound": "COc1cccc(OC)c1B(O)O [2,6-dimethoxybenzeneboronic acid]", "Unit name": "°C", "Reported measurement": 107}
{"Compound": "Cc1nnc2n1-c1ccc(Cl)cc1C(c1ccccc1Cl)=NC2 [Triazolam]", "Unit name": "°C", "Reported measurement": 234}
{"Compound": "CC1(C)CCC2=C1CCC1C2CCC2CC(=O)CCC21C (stereo not given) [10,17,17-trimethylgon-13-en-3-one]", "Unit name": "°C", "Reported measurement": 135}
{"Compound": "CSCC[C@@H](NC(=O)OC(C)(C)C)C(=O)O [N-boc-D-methionine]", "Unit name": "°C", "Reported measurement": 49}
{"Compound": "COc1ccc(/C=C/[N+](=O)[O-])cc1OC [3,4-dimethoxy-beta-nitrostyrene]", "Unit name": "°C", "Reported measurement": 140}
{"Compound": "CCCCCCCCCCCC [Dodecane]", "Unit name": "°C", "Reported measurement": -9.6}
{"Compound": "N#Cc1ccccc1O [2-cyanophenol]", "Unit name": "°C", "Reported measurement": 94}
{"Compound": "CCNC(=O)OC(C)(C)C [N-boc-ethylamine]", "Unit name": "°C", "Reported measurement": 40}
{"Compound": "CCCCCCCCCCCCCCCCCC [N-octadecane]", "Unit name": "°C", "Reported measurement": 28}
{"Compound": "Cl/C=C/Cl [trans-1,2-dichloroethylene]", "Unit name": "°C", "Reported measurement": -50}
{"Compound": "OB(O)c1ccc(Cl)cc1C(F)(F)F [4-chloro-2-(trifluoromethyl)benzeneboronic acid]", "Unit name": "°C", "Reported measurement": 181}
{"Compound": "CCCC(N)=O [butyramide]", "Unit name": "°C", "Reported measurement": 115}
{"Compound": "O=C(O)/C=C/c1ccc(B(O)O)cc1 [4-(2-carboxyvinyl)benzeneboronic acid]", "Unit name": "°C", "Reported measurement": 193}
{"Compound": "C(#Cc1ccccc1)c1ccccc1 [1,1'-Ethyne-1,2-diyldibenzene]", "Unit name": "°C", "Reported measurement": 60}
{"Compound": "CCC1(c2ccccc2)C(=O)NC(=O)NC1=O [Phenobarbital]", "Unit name": "°C", "Reported measurement": 174}
{"Compound": "Nc1c(Cl)cc(C(F)(F)F)cc1[N+](=O)[O-] [2-chloro-6-nitro-4-(trifluoromethyl)aniline]", "Unit name": "°C", "Reported measurement": 65}
{"Compound": "NNC(=O)COc1ccc(Cl)cc1Cl [2,4-dichlorophenoxyacetic acid hydrazide]", "Unit name": "°C", "Reported measurement": 151}
{"Compound": "Cc1ccc(O)c(Br)c1 [2-bromo-4-methylphenol]", "Unit name": "°C", "Reported measurement": 16}
{"Compound": "Nc1cc(N2CCCCC2)nc(N)[n+]1[O-] [minoxidil]", "Unit name": "°C", "Reported measurement": 248}
{"Compound": "O=C(O)[C@@H]1[C@H](C(=O)O)[C@H]2C=C[C@@H]1C2 [(1R,2R,3S,4S)-Bicyclo[2.2.1]hept-5-ene-2,3-dicarboxylic acid]", "Unit name": "°C", "Reported measurement": 150}
{"Compound": "COc1ccc(SCC(=O)O)cc1OC [(3,4-dimethoxyphenylthio)acetic acid]", "Unit name": "°C", "Reported measurement": 102}
{"Compound": "C#CC1(O)CCC2C3CC=C4C=C(C(C)(C)C(=O)O)CCC4(C)C3CCC21C (stereo not given)", "Unit name": "°C", "Reported measurement": 259}
{"Compound": "CCCCCC1CCCCC1 [N-pentylcyclohexane]", "Unit name": "°C", "Reported measurement": -58}
{"Compound": "CCCCCCBr [1-bromohexane]", "Unit name": "°C", "Reported measurement": -85}
{"Compound": "Clc1cccc(Cl)c1Br [1-bromo-2,6-dichlorobenzene]", "Unit name": "°C", "Reported measurement": 66}
{"Compound": "Cc1ccc[nH]c1=O [3-methyl-2-pyridone]", "Unit name": "°C", "Reported measurement": 140}
{"Compound": "O=[N+]([O-])c1ccc(Cl)c([N+](=O)[O-])c1 [1-Chloro-2,4-dinitrobenzene]", "Unit name": "°C", "Reported measurement": 53}
{"Compound": "CCCCc1c2c(cc3c1-c1ccccc1OC3)CC(C)(C)CC2=O", "Unit name": "°C", "Reported measurement": 87}
{"Compound": "OB(O)c1cc2ccccc2s1 [benzo[b]thiophene-2-boronic acid]", "Unit name": "°C", "Reported measurement": 255}
{"Compound": "ON=Cc1ccccn1 [pyridine-2-carboxaldoxime]", "Unit name": "°C", "Reported measurement": 111}
{"Compound": "CC(C)c1cccc(C(C)C)c1 [1,3-diisopropylbenzene]", "Unit name": "°C", "Reported measurement": -63}
{"Compound": "O=C1Nc2ccc(Cl)cc2C(c2ccccc2Cl)=NC1O (stereo not given) [lorazepam]", "Unit name": "°C", "Reported measurement": 167}
{"Compound": "CCCCCCCCCCCCC [N-tridecane]", "Unit name": "°C", "Reported measurement": -5}
{"Compound": "Cc1ccc(N=Nc2c(O)ccc3ccccc23)c([N+](=O)[O-])c1 [1-[(4-Methyl-2-nitrophenyl)diazenyl]-2-naphthol]", "Unit name": "°C", "Reported measurement": 271}
{"Compound": "O=C(c1ccccc1)N(O)c1ccccc1 [N-Hydroxy-N-phenylbenzamide]", "Unit name": "°C", "Reported measurement": 119}
{"Compound": "N#Cc1coc2ccccc2c1=O [chromone-3-carbonitrile]", "Unit name": "°C", "Reported measurement": 175}
{"Compound": "O=S(=O)(c1ccc(Cl)cc1)c1ccc(Cl)cc1 [bis(4-chlorophenyl) sulfone]", "Unit name": "°C", "Reported measurement": 149}
{"Compound": "CCCCCCCC#N [octanenitrile]", "Unit name": "°C", "Reported measurement": -45}
{"Compound": "CCSc1nnn[nH]1 [5-(ethylthio)-1h-tetrazole]", "Unit name": "°C", "Reported measurement": 76}
{"Compound": "Cc1cccc(Cl)c1 [1-Chloro-3-methylbenzene]", "Unit name": "°C", "Reported measurement": -48}
